quantity measured: melting point

1. Cc1cscc1-c1cccc2c1ccn2-c1ccnc(N[C@H]2CC[C@H](C(=O)N3CCC(O)CC3)CC2)n1 [Compound 7] : 168 to 188 °C
2. Cc1n[nH]cc1-c1cccc2c1ccn2-c1ccnc(N[C@H]2CC[C@H](C(=O)N3CCC(O)CC3)CC2)n1 [Compound 12] : 215 to 220 °C
3. Cc1ccccc1-c1cccc2c1ccn2-c1ccnc(N[C@H]2CC[C@H](C(=O)N3CCC(O)CC3)CC2)n1 [Compound 15] : 158 to 160 °C

Prompt: Look up melting point: O=C([C@H]1CC[C@H](Nc2nccc(-n3ccc4c(-c5ccccc5)cccc43)n2)CC1)N1CCC(O)CC1 [Compound 17]
Completion: 190 to 191 °C

Prompt: Look up melting point: O=C([C@H]1CC[C@H](Nc2nccc(-n3nnc4c(-c5ccoc5)cccc43)n2)CC1)N1CCC(O)CC1 [Compound 9]
Completion: 243 to 244 °C

Prompt: Look up melting point: Cc1n[nH]cc1-c1cccc2c1nnn2-c1ccnc(NC2CCN(S(C)(=O)=O)CC2)n1 [Compound 10]
Completion: 231 to 232 °C

Prompt: Look up melting point: Cc1ccncc1-c1cccc2c1nnn2-c1ccnc(N[C@H]2CC[C@H](C(=O)N3CCC(O)CC3)CC2)n1 [Compound 3]
Completion: 194.3 to 218.2 °C

---

Quick reference for melting point among some compounds

1. Cc1cscc1-c1cccc2c1nnn2-c1ccnc(N[C@H]2CC[C@H](C(=O)N3CCC(O)CC3)CC2)n1 : 246 to 247 °C

Prompt: Look up melting point: `Cc1noc(C)c1-c1cccc2c1nnn2-c1ccnc(N[C@H]2CC[C@H](C(=O)N3CCC(O)CC3)CC2)n1`
Completion: > 300 °C

Prompt: Look up melting point: `O=C([C@H]1CC[C@H](Nc2nccc(-n3ccc4c(-c5ccsc5)cccc43)n2)CC1)N1CCC(O)CC1`
Completion: 171 to 172 °C

Prompt: Look up melting point: `O=C([C@H]1CC[C@H](Nc2nccc(-n3nnc4c(-c5ccncc5)cccc43)n2)CC1)N1CCC(O)CC1`
Completion: 266 to 267 °C

Prompt: Look up melting point: `Cc1ccncc1-c1cccc2c1ccn2-c1ccnc(N[C@H]2CC[C@H](C(=O)N3CCC(O)CC3)CC2)n1`
Completion: 176 to 178 °C

Prompt: Look up melting point: `O=C([C@H]1CC[C@H](Nc2nccc(-n3ccc4c(-c5ccncc5)cccc43)n2)CC1)N1CCC(O)CC1`
Completion: 258 to 259 °C

Prompt: Look up melting point: `O=C([C@H]1CC[C@H](Nc2nccc(-n3nnc4c(-c5ccsc5)cccc43)n2)CC1)N1CCC(O)CC1`
Completion: 233 to 234 °C

---

- Test system: phospho-c-Jun
- method notes: Phospho-c-Jun translocation assay in TNFα-activated SW1353 cells
- Type: cell-based
- stated conditions: Homo sapiens, TNFα 1 ng/ml for 20 min, 30 min compound pre-incubation
- Method: Inflammation is regulated in part by the action of c-Jun on other genes in the inflammatory pathway. Thus, inhibition of phosphorylated c-Jun translocation to the nucleus provides an indication of the anti-inflammatory activity of a compound. […] The signals of phospho-c-Jun were measured for 400 cells per well by the ArrayScan HCS system (Cellomic). […]
quantity measured: pIC50
For clarity, pIC50 is expressed as the negative log10 of concentration in mol/L.

1) Cc1cscc1-c1cccc2c1nnn2-c1ccnc(NC2CCN(S(C)(=O)=O)CC2)n1 : 4.86
2) Cc1n[nH]cc1-c1cccc2c1nnn2-c1ccnc(NC2CCN(S(C)(=O)=O)CC2)n1 : 5.67
3) Cc1n[nH]cc1-c1cccc2c1nnn2-c1ccnc(N[C@H]2CC[C@H](C(=O)N3CCC(O)CC3)CC2)n1 : 6.36

Prompt: Look up pIC50: `O=C([C@H]1CC[C@H](Nc2nccc(-n3ccc4c(-c5ccncc5)cccc43)n2)CC1)N1CCC(O)CC1`
Completion: 5.60

Prompt: Look up pIC50: `Cc1noc(C)c1-c1cccc2c1nnn2-c1ccnc(N[C@H]2CC[C@H](C(=O)N3CCC(O)CC3)CC2)n1`
Completion: 5.59

Prompt: Look up pIC50: `Cc1ccccc1-c1cccc2c1nnn2-c1ccnc(N[C@H]2CC[C@H](C(=O)N3CCC(O)CC3)CC2)n1`
Completion: 6.17

Prompt: Look up pIC50: `O=C([C@H]1CC[C@H](Nc2nccc(-n3nnc4c(-c5ccncc5)cccc43)n2)CC1)N1CCC(O)CC1`
Completion: 5.24

Prompt: Look up pIC50: `Cc1n[nH]cc1-c1cccc2c1ccn2-c1ccnc(N[C@H]2CC[C@H](C(=O)N3CCC(O)CC3)CC2)n1`
Completion: 5.59
